- System: KM12 colon
- measurement notes: NCI-60 one-dose screen, 48 h
- test parameters: 10 µM unless noted
Compounds without any hit were thinned out: in the full panel of roughly 83,000, 20% have a hit. Active and inactive are the calls of the source. How the source made its calls: active means growth percent below 10; inactive means the rest.
Possible outcomes: active, inactive

compound	cat
COC(=O)[C@@H](C)C[C@H](Cc1ccccc1)NC(=O)c1csc([C@@H](C[C@H](C(C)C)N(C)C(=O)[C@@H](NC(=O)[C@H]2CCCN2C)C2CC2)OC(C)=O)n1	active
Clc1ccc(CO/N=C(\Cn2ccnc2)c2ccc(Cl)cc2Cl)c(Cl)c1	active
CC(=O)O[C@H](C[C@H](C(C)C)N(C)C(=O)[C@@H](NC(=O)[C@H]1CCCCN1C)C(C)C)c1nc(C(=O)NC2CCC(C(=O)O)CC2)cs1 (some centres undefined)	inactive
CCC1(C)CC(CCNCc2ccccc2O)(c2ccc(C)cc2)CCO1 (centres undefined)	inactive
N#Cc1c(Br)n(C2OC(CO)C(O)C2O)c2ncnc(N)c12 (centres undefined)	inactive
CCCCCCCOC(C(=O)OCCN(CC)CC)(c1ccccc1)c1ccccc1	inactive
CN1C(=O)C23CC4(C56CC78SSC(CO)(C(=O)N7C5Nc5ccccc56)N(C)C8=O)c5ccccc5NC4N2C(=O)C1(CO)SS3 (centres undefined)	active
CCc1ccccc1[C@@H]1C[C@]2(C)CCO[C@@H]2OO1	inactive
CCOC(=O)CCN(C)C1=Nc2ccc(Cl)cc2C(c2ccccc2)=[N+]([O-])C1	inactive
ClCCN(CCCl)Cc1ccc(Nc2ccnc3cc(Cl)ccc23)cc1	inactive
Cc1cc(C)c(CBr)c(C)c1	inactive
Cc1c(NS(=O)(=O)c2ccccc2)ccc([N+](=O)[O-])c1Cl	inactive
O=C1NC(=O)C(=Cc2cn(CCCCCCn3c4ccccc4c(=O)c4ccccc43)c3ccccc23)C(=O)N1	inactive
COc1cc(C=Nc2cccc(C(=O)O)c2)ccc1N(CCCl)CCCl	inactive
CC(CC1CCCCC1)NCc1ccccc1 (centres undefined)	inactive
C=CC[PH+](c1ccccc1)c1ccccc1.C=CC[PH+](c1ccccc1)c1ccccc1.[Cl][Pt][Cl]	inactive
CC(CO)NC1CCCCC1 (centres undefined)	inactive
CC(=O)[O][Hg][O]C(C)=O	inactive
COC(=O)[C@@H](C)C[C@H](Cc1cn(C)c2ccccc12)NC(=O)c1csc([C@@H](C[C@H](C(C)C)N(C)C(=O)[C@@H](NC(=O)[C@H]2CCCCN2C)C(C)C)OC(C)=O)n1	active

---

- Tested on: NCI-H460 lung
- measurement notes: NCI-60 one-dose screen, 48 h (100 = growth as untreated, 0 = no growth, -100 = all killed)
- test parameters: 10 µM unless noted
Compounds without any hit were thinned out: in the full panel of roughly 83,000, 20% have a hit. The source made the active and inactive calls. The calls were made as follows: active = growth percent below 10; inactive = the rest.
measurement kind: growth

compound	experimental value
O=C(Nc1ccc(Br)cc1)c1cc(Br)cc(Br)c1O	-25.3% (active)
CC[C@H](NC(=O)[C@H]1CCCCN1C)C(=O)N(C)[C@H](C[C@@H](OC(C)=O)c1nc(C(=O)N[C@@H](Cc2ccccc2)C[C@H](C)C(=O)O)cs1)C(C)C	2.71% (active)
CC(C)COC(C[N+](=O)[O-])C(Cl)(Cl)Cl (stereo not given)	108% (inactive)
Oc1c(CCl)cc(Cl)cc1CCl	108% (inactive)
OCc1ccc2c(c1)OCO2	103% (inactive)
C=CC[n+]1ccc(-c2cc[n+](CC=C)cc2)cc1	91.9% (inactive)
COc1ccc2c(c1)c(-c1nc(-c3cn(C)c4ncccc34)cs1)cn2CCCCN1CCCCC1	-61.2% (active)
Cc1ccccc1NC(=NCCCN1CC1)Nc1ccccc1C	81.7% (inactive)
CC[C@H](C)[C@H](NC(=O)[C@H]1CCCCN1C)C(=O)N(C)[C@H](C[C@@H](OC(C)=O)c1nc(C(=O)NC23CC(C(=O)OC)(C2)C3)cs1)C(C)C	8.77% (active)
Fc1ccc(N2COOC3(OOC2)C2CC4CC(C2)CC3C4)cc1	101% (inactive)
